In this section, each of the compounds is paired with its reported IC50.
TESTED_TARGET: HO-2 (rat brain) (Rattus norvegicus)
Construct: brain microsomes were used as a source of HO-2; from tissue; host or cells: brain microsomal fraction of adult male Sprague-Dawley rats
Sequence (P23711 whole entry): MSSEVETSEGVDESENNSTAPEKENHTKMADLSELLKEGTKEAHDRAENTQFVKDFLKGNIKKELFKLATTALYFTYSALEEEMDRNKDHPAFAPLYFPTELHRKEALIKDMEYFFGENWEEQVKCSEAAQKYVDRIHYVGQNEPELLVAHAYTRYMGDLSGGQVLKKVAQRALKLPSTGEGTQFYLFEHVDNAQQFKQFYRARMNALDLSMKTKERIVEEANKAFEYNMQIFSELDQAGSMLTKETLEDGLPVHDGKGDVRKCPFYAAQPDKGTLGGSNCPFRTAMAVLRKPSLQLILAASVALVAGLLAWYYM
PROTOCOL_TEXT: HO enzymatic activity, rat brain microsomal fraction (CO formation from methemalbumin)
Assay type: biochemical
CONDITION_DETAILS: IC50 HO-2 (rat brain)/μM), CO formation from methemalbumin, mean ± SD of replicate experiments
Where a name gives a salt, the structure may show the parent alone.

- COMPOUND: "Cl.OC(CCc1ccc(I)cc1)Cn1ccnc1 (racemic) [QC-74, hydrochloride]"
  RELATION_QUALIFIER: "="
  IC50 (µM): 2
- COMPOUND: "Nc1cccc(SC[C@@H]2CO[C@](CCc3ccc(Cl)cc3)(Cn3ccnc3)O2)c1 [QC-7, dihydrochloride]"
  RELATION_QUALIFIER: "="
  IC50 (µM): 21
- COMPOUND: "Cl.OC(CCc1ccccc1)Cn1ccnc1 (racemic) [QC-76, hydrochloride]"
  RELATION_QUALIFIER: "="
  IC50 (µM): 16
- COMPOUND: "O=C(CCc1ccc(Br)cc1)Cn1cncn1 [QC-64, hydrochloride]"
  RELATION_QUALIFIER: "="
  IC50 (µM): 3
- COMPOUND: "CN(C)CCC(=O)c1ccc(Cl)cc1"
  RELATION_QUALIFIER: ">"
  IC50 (µM): 100
- COMPOUND: "O=C(Cn1ccnc1)NCc1ccccc1 [QC-63, hydrochloride]"
  RELATION_QUALIFIER: ">"
  IC50 (µM): 100
- COMPOUND: "O=C(CCc1ccc(F)cc1)Cn1ccnc1 [QC-54, hydrochloride]"
  RELATION_QUALIFIER: "="
  IC50 (µM): 2

Where do these numbers come from? They come from patent US20120020915A1.
